- SYSTEM NAME: IKZF2 (Homo sapiens, UniProt Q96SW2+Q9UKS7)
- Sequence (Q9UKS7 whole entry): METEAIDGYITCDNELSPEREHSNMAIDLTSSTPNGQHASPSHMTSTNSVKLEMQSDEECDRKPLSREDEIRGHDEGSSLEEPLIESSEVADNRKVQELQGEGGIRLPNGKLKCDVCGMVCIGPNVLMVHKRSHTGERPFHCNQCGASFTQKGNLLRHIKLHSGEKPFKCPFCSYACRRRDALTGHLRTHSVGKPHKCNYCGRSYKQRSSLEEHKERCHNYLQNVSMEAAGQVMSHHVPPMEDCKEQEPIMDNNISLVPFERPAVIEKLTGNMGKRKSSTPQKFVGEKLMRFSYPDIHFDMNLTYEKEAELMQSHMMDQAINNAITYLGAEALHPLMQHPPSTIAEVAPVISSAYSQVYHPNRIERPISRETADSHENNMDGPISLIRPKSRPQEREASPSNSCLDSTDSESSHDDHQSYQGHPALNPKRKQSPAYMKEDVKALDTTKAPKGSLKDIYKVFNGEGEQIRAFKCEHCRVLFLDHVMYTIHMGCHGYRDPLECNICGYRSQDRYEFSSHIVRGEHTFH
- Sequence (Q96SW2 whole entry): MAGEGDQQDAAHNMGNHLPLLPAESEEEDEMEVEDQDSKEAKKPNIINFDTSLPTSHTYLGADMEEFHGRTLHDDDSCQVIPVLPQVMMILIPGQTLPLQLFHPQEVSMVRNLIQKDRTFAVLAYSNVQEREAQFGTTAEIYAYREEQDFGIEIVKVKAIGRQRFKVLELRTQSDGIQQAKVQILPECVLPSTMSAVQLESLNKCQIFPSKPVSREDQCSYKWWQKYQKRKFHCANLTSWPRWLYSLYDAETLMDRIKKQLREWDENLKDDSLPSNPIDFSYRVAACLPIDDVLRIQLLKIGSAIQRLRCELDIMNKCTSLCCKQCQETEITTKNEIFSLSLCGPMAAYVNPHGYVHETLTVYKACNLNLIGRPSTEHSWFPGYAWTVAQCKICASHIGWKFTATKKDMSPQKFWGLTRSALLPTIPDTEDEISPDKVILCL
- Sequence (Q16531 whole entry partner): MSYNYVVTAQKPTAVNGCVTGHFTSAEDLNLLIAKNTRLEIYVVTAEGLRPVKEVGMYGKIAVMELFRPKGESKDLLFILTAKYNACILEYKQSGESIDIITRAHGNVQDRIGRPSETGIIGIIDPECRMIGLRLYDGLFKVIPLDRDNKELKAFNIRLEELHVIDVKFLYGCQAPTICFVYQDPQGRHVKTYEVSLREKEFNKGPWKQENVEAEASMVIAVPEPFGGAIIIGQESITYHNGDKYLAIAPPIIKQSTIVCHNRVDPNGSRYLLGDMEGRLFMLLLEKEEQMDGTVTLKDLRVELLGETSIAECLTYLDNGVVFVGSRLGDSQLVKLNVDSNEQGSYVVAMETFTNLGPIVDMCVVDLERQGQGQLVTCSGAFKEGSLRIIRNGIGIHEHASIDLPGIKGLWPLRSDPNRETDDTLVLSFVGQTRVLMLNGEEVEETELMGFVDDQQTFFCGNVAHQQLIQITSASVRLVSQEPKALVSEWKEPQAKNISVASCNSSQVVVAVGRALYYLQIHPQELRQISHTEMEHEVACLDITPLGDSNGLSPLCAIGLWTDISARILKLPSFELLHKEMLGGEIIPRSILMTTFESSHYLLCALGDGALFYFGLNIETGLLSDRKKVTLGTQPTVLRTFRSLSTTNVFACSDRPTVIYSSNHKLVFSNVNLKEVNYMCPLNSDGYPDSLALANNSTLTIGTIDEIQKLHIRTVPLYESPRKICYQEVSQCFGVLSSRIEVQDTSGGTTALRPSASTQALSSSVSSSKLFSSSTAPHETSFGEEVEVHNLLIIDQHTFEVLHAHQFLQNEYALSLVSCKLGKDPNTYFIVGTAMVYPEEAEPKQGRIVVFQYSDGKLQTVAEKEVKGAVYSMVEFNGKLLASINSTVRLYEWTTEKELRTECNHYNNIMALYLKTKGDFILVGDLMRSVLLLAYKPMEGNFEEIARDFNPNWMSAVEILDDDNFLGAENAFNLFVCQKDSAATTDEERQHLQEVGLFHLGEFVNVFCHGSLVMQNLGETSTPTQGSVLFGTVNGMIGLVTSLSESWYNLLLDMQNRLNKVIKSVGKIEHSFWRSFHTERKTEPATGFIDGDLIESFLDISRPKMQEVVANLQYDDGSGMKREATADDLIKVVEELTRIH
- PROCEDURE DETAILS: Human whole blood IKZF2 degradation (flow cytometry, CD4/CD25/Foxp3+ Treg cells)
- Format: cell-based
- Set-up: endogenous in cells
- CONDITION SUMMARY: 24 hrs incubation, IKZF2 MFI in CD4/CD25/Foxp3+ Treg cells, flow cytometry, read-out: IKZF2 EC50
Assignment: determine reported DC50 for the given molecules.
One number for each entry, in nM.

Take a look at these entries with their results.
O=C1CCC(N2Cc3c(ccc(C[C@H]4CCCC[C@@H]4NCC4CCOCC4)c3F)C2=O)C(=O)N1 (some centres unmarked) = 6
[2H]C1(N[C@H]2CCCC[C@@H]2Cc2ccc3c(c2)CN(C2CCC(=O)NC2=O)C3=O)CCC(F)(F)CC1 (some centres unmarked) = 2
CC(C)CCN[C@H]1CCCC[C@@H]1Cc1ccc2c(c1)CN(C1CCC(=O)NC1=O)C2=O (some centres unmarked) = 9

Hello, I would appreciate it if you could give DC50 for each entry below.
1. CC(N[C@H]1CCCC[C@@H]1Cc1ccc2c(c1)CN(C1CCC(=O)NC1=O)C2=O)C1(C#N)CC1 (single isomer, unassigned)
2. CC1(C)CC(N[C@H]2CCCO[C@@H]2Cc2ccc3c(c2F)CN(C2CCC(=O)NC2=O)C3=O)CCO1 (some centres unmarked) [Example 222]
3. CCC(CC)N[C@H]1CCCC[C@@H]1Cc1ccc2c(c1)CN(C1CCC(=O)NC1=O)C2=O (some centres unmarked)
4. O=C1CCC(N2Cc3cc(C[C@H]4CCCC[C@@H]4NC4CC5(CC5)C4)ccc3C2=O)C(=O)N1 (some centres unmarked)

Reply text:
[10, 6, 6, 5]

Hello, I would appreciate it if you could give DC50 for each entry below.
1. O=C1CCC(N2Cc3c(ccc(C[C@H]4CCCC[C@@H]4NC4CCCC4)c3F)C2=O)C(=O)N1 (some centres unmarked)
2. CC1(C)CC(N[C@H]2CCCO[C@@H]2Cc2ccc3c(c2F)CN(C2CCC(=O)NC2=O)C3=O)CCO1 (some centres unmarked) [Example 223]
3. COC1CCC(N[C@H]2CCCO[C@@H]2Cc2ccc3c(c2F)CN(C2CCC(=O)NC2=O)C3=O)CC1 (some centres unmarked)
4. O=C1CCC(N2Cc3cc(C[C@H]4CCCC[C@@H]4NC4CCC(C(F)(F)F)CC4)ccc3C2=O)C(=O)N1 (single isomer, unassigned)

Reply text:
1: 3; 2: 3; 3: 5; 4: 2
